STUDY_TARGET: T1, M. jannaschii Adriase S1A mutant with C-terminal His-tag (Methanocaldococcus jannaschii, UniProt Q57968 3-293)
T1 construct: The entry is the S1A mutant itself
T1 sequence: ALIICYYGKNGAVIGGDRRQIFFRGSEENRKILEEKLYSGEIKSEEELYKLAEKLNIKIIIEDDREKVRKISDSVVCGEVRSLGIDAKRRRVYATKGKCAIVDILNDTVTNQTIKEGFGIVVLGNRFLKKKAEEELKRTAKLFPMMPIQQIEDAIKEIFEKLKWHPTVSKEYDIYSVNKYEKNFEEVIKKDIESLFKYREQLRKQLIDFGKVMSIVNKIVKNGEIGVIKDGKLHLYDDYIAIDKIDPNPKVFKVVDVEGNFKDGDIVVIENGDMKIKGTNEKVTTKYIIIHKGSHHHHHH
PROTOCOL_NOTES: microscale thermophoresis (MST); table row (5)KDPGA(10)
Ends that are not written are not given here.
ATTRIBUTE_MEASURED: pKd
Lab note: report pKd as minus log10 of the concentration in molar units, number only.

Return reported pKd; argument: KECLSKDPGAIDEDPFIIEL-{K(FITC)} (Synthetic peptide (Genscript); also called (5)KDPGA(10F)) [(5)KDPGA(10) peptide, M. jannaschii MtrA-derived, C-terminal FITC]
6.92

From: patent US20260275319A1
